- subject-of-test: Interleukin-1 beta (Homo sapiens)
- Sequence (P01584 117-269 limits assumed): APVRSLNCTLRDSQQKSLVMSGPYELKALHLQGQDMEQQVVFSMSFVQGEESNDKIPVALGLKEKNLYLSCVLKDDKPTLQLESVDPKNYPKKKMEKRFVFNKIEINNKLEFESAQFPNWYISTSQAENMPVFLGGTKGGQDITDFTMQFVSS
- protocol-text: Induction of IL-1 beta production in LPS-induced human THP-1 cells by ELISA
pIC50: −log10 of the molar value.
readout-type: pIC50

> print(dat)
                               entry.smiles  value
1  C=C1[C@@]2(C)C[C@@H]3[C@](C)(CC=C4C(C)(C)OC(=O)CC[C@]43C)[C@]1(C(=O)OC)C(=O)[C@@](C)(O)C2=O   5.43
2  C=C1[C@@]2(C)C[C@H]3[C@]4(C)CC[C@@H](O)C(C)(C)[C@H]4CC[C@]3(C)[C@]1(C(=O)OC)C(=O)[C@@](C)(O)C2=O   5.57
3  C=C1[C@@]2(C)C[C@H]3[C@]4(C)CCC(=O)OC(C)(C)[C@@H]4CC[C@]3(C)[C@]1(C(=O)OC)C(=O)[C@@](C)(O)C2=O   4.46

I = C=C(C)C1=CC[C@@]2(C)[C@@H](C[C@]3(C)C(=C)[C@@]2(C(=O)OC)C(=O)[C@@](C)(O)C3=O)[C@]1(C)CCC(=O)O
II = C=C1[C@@]2(C)C[C@H]3C(C)=C4CC(=O)OC(C)(C)C4=CC[C@]3(C)[C@]1(C(=O)OC)C(=O)[C@@](C)(O)C2=O
III = CC(=O)N[C@@H](Cc1ccc(O)cc1)C(=O)N[C@H](C(=O)N[C@@H](C)C(=O)N[C@H](C=O)CC(=O)O)C(C)C
IV = C=C1[C@@]2(C)C[C@H]3[C@]4(C)CCC(=O)C(C)(C)[C@H]4CC[C@]3(C)[C@]1(C(=O)OC)C(=O)[C@@](C)(O)C2=O
## Input Place the items in sequence of falling pIC50. Answer by writing out the labels in the requested order.
## Output III, II, IV, I
(III: 5.70, II: 5.36, IV: 4.81, I: 4.42)
